Origin of values: patent US20250129104A1

Biological target: recombinant DYRK1A kinase (Homo sapiens (Human))
Assay: DYRK1A kinase assay (Ser/Thr 18 peptide Z-lyte FRET assay)
Conditions: DYRK1A kinase activity; 15 μM ATP, 1 h room temperature; method text calls the value IC50

compound: CCO[C@H]1CC[C@@H](Nc2ncc3c(-c4ccn5nccc5n4)c[nH]c3n2)CC1
unit_descriptor: µM
EC50: 0.0085
--
compound: Cn1nnc2ccc(-c3c[nH]c4nc(CCC(F)(F)F)ncc34)cc21
unit_descriptor: µM
EC50: 0.0333
--
compound: COc1ccc(-c2c[nH]c3nc(NCC(C)(C)F)ncc23)cn1
unit_descriptor: µM
EC50: 0.0339
--
compound: CC(C)Oc1nc(N[C@H]2CC[C@@](C)(O)CC2)nc2[nH]cc(-c3ccn4nccc4c3)c12 [Compound 2320]
unit_descriptor: µM
EC50: 0.0594
--
compound: COc1nc(NC2CCC(F)(F)CC2)nc2[nH]cc(-c3ccn4nccc4c3)c12
unit_descriptor: µM
EC50: 0.0032
--
compound: CC(C)(F)CNc1ncc2c(-c3ccn4ncc(C(=O)N5CCCCC5)c4c3)c[nH]c2n1
unit_descriptor: µM
EC50: 0.0097
--
compound: COCCO[C@H]1CC[C@@H](Nc2nc(OC)c3c(-c4ccn5nccc5c4)c[nH]c3n2)CC1
unit_descriptor: µM
EC50: 0.0017
--
compound: COc1nc(N[C@H]2CC[C@@H](OC(F)F)CC2)nc2[nH]cc(-c3cc(F)c4nccn4c3)c12
unit_descriptor: µM
EC50: 0.193

====

Biological target: recombinant DYRK1A kinase (Homo sapiens (Human))
Assay: DYRK1A kinase assay (Ser/Thr 18 peptide Z-lyte FRET assay)
Settings: DYRK1A kinase activity; 15 μM ATP, 1 h room temperature; method text calls the value IC50
Protocol: Representative compounds were screened using the assay procedure for DYRK1A kinase activity as described below. Each compound was dissolved in DMSO as a 10 mM stock and used to prepare compound source plates. […] The Emission ratio (Em) was calculated as a ratio of the coumarin (C) emission signal (at 445 nm)/Fluorescein (F) emission signal (at 520 nm). The percent phosphorylation was then calculated using the following formula: [1−((Em ratio×F100%)−C100%)/((C0%−C100%)+(Em ratio×(F100%−F0%)))]. […]

smiles_text: CC(C)(F)CNc1ncc2c(-c3cc(F)c4ncnn4c3)c[nH]c2n1
EC50 [nM]: 76.3
//
smiles_text: C[C@@H](Nc1ncc2c(-c3ccn4nccc4n3)c[nH]c2n1)C(F)(F)F
EC50 [nM]: 13.2
//
smiles_text: CCOc1nc(N[C@H](C)C(F)(F)F)nc2[nH]cc(-c3ccc4nccn4c3)c12
EC50 [nM]: 10.3
//
smiles_text: CC(C)Nc1ncc2c(-c3ccn4ncnc4c3)c[nH]c2n1
EC50 [nM]: 72.1
//
smiles_text: COc1nc(N[C@H]2CC[C@@H](OC(F)(F)F)CC2)nc2[nH]cc(-c3cc(F)c4nccn4c3)c12
EC50 [nM]: 245
//
smiles_text: Cc1nc2ccc(-c3c[nH]c4nc(N[C@H](C)C(F)(F)F)ncc34)nc2n1CC(F)F
EC50 [nM]: 5.6
//
smiles_text: CN1CCN(c2cc(Nc3ncc4c(-c5ccc6ncnn6c5)c[nH]c4n3)ccn2)CC1
EC50 [nM]: 4.5
//
smiles_text: C[C@@H](Nc1ncc2c(-c3ccc4ncnn4c3)c[nH]c2n1)C(F)(F)F
EC50 [nM]: 18.7
